- System: 2D10 cells
- ASSAY OVERVIEW: Cytotoxicity by LDH assay in 2D10 cells
- Format: cell-based
- MEASUREMENT CONDITIONS: 0 to 20 μM, 48 h
- Procedure: Drug titration was conducted. For analysis of cell viability, cells (100,000 cells/100 μL) were treated in triplicate for 48 h with increasing concentrations of Debio-1143 or other known LRAs (0 to 20 μM). Cellular cytotoxicity was analyzed by Lactate dehydrogenase (LDH) assay. LDH is an oxidoreductase enzyme that catalyzes the interconversion of pyruvate and lactate. […] In this particular, LDH reduces NAD to NADH, which is specifically detected by colorimetric (490 nm) assay.
MEASUREMENT TYPE: cytotoxicity (LDH assay)

INSERT INTO measurements (entry_smiles, measurement_type, result) VALUES
  ('CCC/C=C/C=C/C(=O)O[C@H]1/C(=C/C(=O)OC)C[C@H]2C[C@H]([C@@H](C)O)OC(=O)C[C@H](O)C[C@@H]3C[C@H](OC(C)=O)C(C)(C)[C@](O)(C[C@@H]4C/C(=C/C(=O)OC)C[C@H](/C=C/C(C)(C)[C@]1(O)O2)O4)O3', 'cytotoxicity (LDH assay)', 'highly toxic'),
  ('CN1C(=O)[C@@]23C[C@]4([C@]56C[C@@]78SS[C@@](CO)(C(=O)N7[C@H]5Nc5ccccc56)N(C)C8=O)c5ccccc5N[C@@H]4N2C(=O)[C@]1(CO)SS3', 'cytotoxicity (LDH assay)', 'highly toxic'),
  ('Cc1[nH]c2ccccc2c1CCNCc1ccc(/C=C/C(=O)NO)cc1', 'cytotoxicity (LDH assay)', 'highly toxic');
